Tested on: Staphylococcus aureus
Experiment: Antibacterial activity against Staphylococcus aureus ATCC 6538 after 18 hrs by serial microdilution broth assay
Type: functional
Conditions: ATCC 6538, 18 h
Quantity Kind: MIC50 (µg/mL)
Quick note: give the figure in µg/mL, leave out the unit.

The reported value for COc1cc(NC(C)CCCN)c2ncccc2c1 (stereo unspecified) in terms of MIC50 is 70

The reported value for COc1cc(NC(C)CCCNC(=O)Nc2cccc(O)c2)c2ncccc2c1 (stereo unspecified) in terms of MIC50 is 20

The reported value for COc1cc(NC(C)CCCNC(=O)Nc2ccc(Br)cc2)c2ncccc2c1 (stereo unspecified) in terms of MIC50 is 50

The reported value for COc1cc(NC(C)CCCNC(=O)Nc2cc(C(F)(F)F)cc(C(F)(F)F)c2)c2ncccc2c1 (stereo unspecified) in terms of MIC50 is 1.6

The reported value for CN(C)[C@@H]1C(O)=C(C(N)=O)C(=O)[C@@]2(O)C(O)=C3C(=O)c4c(O)cccc4[C@@](C)(O)[C@H]3C[C@@H]12 in terms of MIC50 is 0.15

The reported value for COc1cc(NC(C)CCCNC(=O)Nc2ccc(C(F)(F)F)cc2)c2ncccc2c1 (stereo unspecified) in terms of MIC50 is 25

* * *

Test: Antioxidant activity assessed as inhibition of AAPH-induced linoleic acid lipid peroxidation at 1 x 10^-4 M by UV-absorbance method relative to control
Type: functional
Measured inhibition, listed per entry for reference.
Quick note: give the figure in %, leave out the unit.

[[record]]
compound = "COc1cc(NC(C)CCCNC(=O)Nc2ccc(O)cc2)c2ncccc2c1 (stereo not given)"
endpoint_unit = "%"
value_reported = 54

[[record]]
compound = "COc1cc(NC(C)CCCNC(=O)Nc2ccc(Cl)cc2)c2ncccc2c1 (stereo not given)"
endpoint_unit = "%"
value_reported = 81.9

[[record]]
compound = "COc1cc(NC(C)CCCNC(=O)Nc2ccc(C(F)(F)F)cc2)c2ncccc2c1 (stereo not given)"
endpoint_unit = "%"
value_reported = 67


The reported value for COc1cc(NC(C)CCCNC(=O)NNC(=O)Nc2cccc(F)c2)c2ncccc2c1 (stereo not given) in terms of inhibition is 58.2

The reported value for COc1cc(NC(C)CCCNC(=O)NNC(=O)Nc2ccc(O)cc2)c2ncccc2c1 (stereo not given) in terms of inhibition is 61.9

The reported value for COc1cc(NC(C)CCCNC(=O)NNC(=O)Nc2ccc(C(F)(F)F)cc2)c2ncccc2c1 (stereo not given) in terms of inhibition is 75.3

The reported value for COc1cc(NC(C)CCCNC(=O)Nc2cccc(F)c2)c2ncccc2c1 (stereo not given) in terms of inhibition is 74.3

The reported value for COc1cc(NC(C)CCCNC(=O)NNC(=O)Nc2cccc(C(F)(F)F)c2)c2ncccc2c1 (stereo not given) in terms of inhibition is 52.6

The reported value for COc1cc(NC(C)CCCNC(=O)NNC(=O)Nc2ccc(Cl)cc2)c2ncccc2c1 (stereo not given) in terms of inhibition is 42.1

The reported value for COc1cc(NC(C)CCCNC(=O)Nc2ccc(F)cc2)c2ncccc2c1 (stereo not given) in terms of inhibition is 64.4

* * *

System: Staphylococcus aureus
Test: Antibacterial activity against methicillin resistant Staphylococcus aureus MFBF 10682 after 18 hrs by serial microdilution broth assay
Type: functional
Conditions: MFBF 10682, 18 h
Measured MIC50, listed per entry for reference.
Quick note: give the figure in µg/mL, leave out the unit.

Consider the worked cases shown below.
[[record]]
compound = "COc1cc(NC(C)CCCN)c2ncccc2c1 (stereo unspecified) [PRIMAQUINE]"
tested_system = "Staphylococcus aureus"
endpoint_unit = "µg/mL"
value_reported = 60

[[record]]
compound = "CN(C)[C@@H]1C(O)=C(C(N)=O)C(=O)[C@@]2(O)C(O)=C3C(=O)c4c(O)cccc4[C@@](C)(O)[C@H]3C[C@@H]12 [TETRACYCLINE]"
tested_system = "Staphylococcus aureus"
endpoint_unit = "µg/mL"
value_reported = 0.312


Here is the next item to consider.
Bench note, Staphylococcus aureus: COc1cc(NC(C)CCCNC(=O)Nc2cccc(O)c2)c2ncccc2c1 (stereo unspecified) , MIC50 reads 50
